# system: recombinant human Myt1 (full length PKMYT1) (Homo sapiens (Human), UniProt Q99640)
# Sequence (Q99640 whole entry): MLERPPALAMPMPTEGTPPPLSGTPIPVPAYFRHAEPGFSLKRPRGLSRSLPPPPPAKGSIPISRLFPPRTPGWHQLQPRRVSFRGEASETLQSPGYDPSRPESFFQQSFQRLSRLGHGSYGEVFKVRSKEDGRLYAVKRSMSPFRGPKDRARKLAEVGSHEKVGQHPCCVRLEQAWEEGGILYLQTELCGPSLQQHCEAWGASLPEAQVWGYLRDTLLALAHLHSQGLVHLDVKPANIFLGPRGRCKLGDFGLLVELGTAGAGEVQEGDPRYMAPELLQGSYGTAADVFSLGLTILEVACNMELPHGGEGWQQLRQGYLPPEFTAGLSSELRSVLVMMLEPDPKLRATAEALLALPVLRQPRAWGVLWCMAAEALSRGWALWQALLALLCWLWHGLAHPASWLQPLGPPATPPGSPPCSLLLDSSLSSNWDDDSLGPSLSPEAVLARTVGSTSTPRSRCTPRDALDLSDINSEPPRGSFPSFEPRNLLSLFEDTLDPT
# assay_comment: Recombinant human Myt1 kinase assay (ADP-Glo)
# condition_set: 10 μM ATP
quantity: IC50
Could you give the number and then its unit, please?

Cc1ccc2[nH]ncc2c1-c1nc(-c2cccnc2Nc2ccccc2F)nc(C(N)=O)c1N [Compound 610] has a reported IC50 of 10 nM

Cc1ccc2[nH]ncc2c1-c1cc(-c2ccccn2)nc(C(N)=O)c1N [Compound 87] has a reported IC50 of 11 nM

Cc1ccc2[nH]ncc2c1-c1nc(-c2ccccc2NC(=O)C23CC(F)(C2)C3)nc(C(N)=O)c1N [Compound 448] has a reported IC50 of 7 nM

Cc1ccc2[nH]ncc2c1-c1nc(-c2cccc3c2NC(=O)C32CC2)nc(C(N)=O)c1N [Compound 399] has a reported IC50 of 17 nM

COC[C@H](C)Oc1nccc(-c2cc(-c3c(C)ccc4[nH]ncc34)c(N)c(C(N)=O)n2)n1 [Compound 203] has a reported IC50 of 11 nM

CCC(COC)Oc1nccc(-c2cc(-c3c(C)ccc4[nH]ncc34)c(N)c(C(N)=O)n2)n1 (centres unmarked) [Compound 221] has a reported IC50 of 7 nM

Cc1ccc2[nH]ncc2c1-c1cc(-c2ccnc(OCCc3cccnc3)n2)nc(C(N)=O)c1N [Compound 272] has a reported IC50 of 12 nM

Cc1ccc2[nH]ncc2c1-c1nc(-c2ccccc2NC(=O)OC(C)(C)C)nc(C(N)=O)c1N [Compound 474] has a reported IC50 of 16 nM

Cc1ccc2[nH]ncc2c1-c1nc(-c2cccc3c2NC(=O)C3(F)F)nc(C(N)=O)c1N [Compound 395] has a reported IC50 of 17 nM

Cc1ccc2[nH]ncc2c1-c1cc(-c2cccc(OCCN3CCOCC3)n2)nc(C(N)=O)c1N [Compound 185] has a reported IC50 of 7 nM

CNCCOc1nccc(-c2cc(-c3c(C)ccc4[nH]ncc34)c(N)c(C(N)=O)n2)n1 [Compound 210] has a reported IC50 of 10 nM

COCCCOc1nccc(-c2cc(-c3c(C)ccc4[nH]ncc34)c(N)c(C(N)=O)n2)n1 [Compound 197] has a reported IC50 of 12 nM

Cc1ccc2[nH]ncc2c1-c1cc(-c2cccc(OCc3cccnc3)n2)nc(C(N)=O)c1N [Compound 179] has a reported IC50 of 7 nM

Cc1ccc2[nH]ncc2c1-c1nc(-c2cccnc2N[C@H]2CCOCC2(C)C)nc(C(N)=O)c1N [Compound 830] has a reported IC50 of 8 nM

* * *

# system: recombinant human Myt1 (full length PKMYT1) (Homo sapiens (Human), UniProt Q99640)
# assay_comment: Recombinant human Myt1 kinase assay (ADP-Glo)
# condition_set: 10 μM ATP
Give IC50 for every item shown.

Cc1ccc2[nH]ncc2c1-c1nc(-c2ccc3c(c2)OCO3)nc(C(N)=O)c1N has a reported IC50 of 9 nM

CO[C@H](COc1cccc(-c2cc(-c3c(C)ccc4[nH]ncc34)c(N)c(C(N)=O)n2)n1)C1CC1 (atropisomer, axis not shown) has a reported IC50 of 8 nM

Cc1ccc2[nH]ncc2c1-c1nc(-c2cccnc2NS(C)(=O)=O)nc(C(N)=O)c1N has a reported IC50 of 8 nM

Cc1ccc2[nH]ncc2c1-c1cc(-c2ccnc(OCC3CCCO3)n2)nc(C(N)=O)c1N (stereo not drawn) has a reported IC50 of 7 nM

Cc1ccc(O)c(C)c1-c1cc(-c2cccc(=O)[nH]2)nc(C(N)=O)c1N has a reported IC50 of 10 nM

Cc1ccc2[nH]ncc2c1-c1cc(-c2ccnc(Oc3ccccc3)n2)nc(C(N)=O)c1N has a reported IC50 of 6 nM

COCC(=O)Nc1ccccc1-c1nc(C(N)=O)c(N)c(-c2c(C)ccc3[nH]ncc23)n1 has a reported IC50 of 6 nM

Cc1ccc(O)c(C)c1-c1cc(C(=O)Nc2cccnc2)nc(C(N)=O)c1N has a reported IC50 of 8 nM

Cc1ccc(O)c(C)c1-c1cc(-c2ccnnc2)nc(C(N)=O)c1N [Compound 52] has a reported IC50 of 8 nM

Cc1ccc2[nH]ncc2c1-c1nc(-c2ccc(F)cc2Nc2ccnc(C(C)C)c2)nc(C(N)=O)c1N has a reported IC50 of 6 nM

CSc1nccc(-c2cc(-c3c(C)ccc4[nH]ncc34)c(N)c(C(N)=O)n2)n1 has a reported IC50 of 8 nM

Cc1ccc2[nH]ncc2c1-c1cc(-c2ccnc(OCCO)n2)nc(C(N)=O)c1N has a reported IC50 of 13 nM

CC(=O)Nc1cccc(-c2cc(-c3c(C)ccc(O)c3C)c(N)c(C(N)=O)n2)c1 has a reported IC50 of 6 nM

CC(=O)Nc1cccc(-c2nc(C(N)=O)c(N)c(-c3c(C)ccc4[nH]ncc34)n2)c1 has a reported IC50 of 15 nM

Cc1ccc2[nH]ncc2c1-c1cc(-c2ccnc(N3CCCC(CO)C3)n2)nc(C(N)=O)c1N (stereo not drawn) has a reported IC50 of 13 nM
